Here the recorded Minimal Inhibitory Concentration (MIC) is given for each entry.
# Test system: A. niger 1133 m
# protocol.details: Broth two-fold microdilution MIC (CLSI)
# Format: cell-based, Aspergillus niger
# details: A. niger 1133 m clinical isolate; RPMI 1640 pH 7.0, 35 °C, 48 h
The reply should be a number in µg/mL, with the unit left off.

Use the examples below as a reference point.
Methyldecanoyl-MePro-AHMOD-Ser-Aib-Ile-Iva-βAla-Alaol-Glyol [EmiC, emericellipsin C, homologue of emericellipsin A, nonribosomal peptaibol] :: 32
Methyldecanoyl-MePro-AHMOD-Ala-Aib-Ile-Iva-βAla-Alaol-Glyol [EmiA, emericellipsin A, nonribosomal lipopeptaibol, major compound of E. alkalina VKPM F1428] :: 4

## Task Enter reported Minimal Inhibitory Concentration (MIC) observed with A. niger 1133 m for Methyldecanoyl-MePro-AHMOD-Ala-Aib-Ile-Aib-βAla-Alaol-Glyol [EmiB, emericellipsin B, homologue of emericellipsin A, nonribosomal peptaibol]
## Result 8

----------
# Tested on: C. glabrata 1402
# protocol.details: Sensititre YeastOne antifungal susceptibility test
# Format: cell-based
# details: Nakaseomyces glabratus, 1402
Starred links: 1 amine or outer side, 2 acyl side, 3 side chain; linkers in the order of their positions; H or OH if unused. Positions of bridges follow the written chain, without caps; N, C: chain ends. Non-standard residues stand in square brackets, D forms with d. Residues, ends and D or L forms follow the SMILES beside them. *: point of attachment. hTyr(3S-OH,4S-OH,3'-OSO3H) = N[C@H](C(=O)O)[C@H](O)[C@@H](O)c1ccc(O)c(OS(=O)(=O)O)c1; pTerphenylCO(4''-OnC5H11) = CCCCCOc1ccc(-c2ccc(-c3ccc(C(=O)*)cc3)cc2)cc1; Orn(4R-OH,5R-OH) = O=C([C@H](C[C@@H](O)[C@@H](O)N[*:3])N[*:1])[*:2]; hTyr(3S-OH,4S-OH) = N[C@H](C(=O)O)[C@H](O)[C@@H](O)c1ccc(O)cc1; Pro(3S-OH,4S-Me) = C[C@H]1CN[C@H](C(=O)O)[C@H]1O; X1 = CCCCCOc1ccc(-c2cc(-c3ccc(C(=O)*)cc3)no2)cc1; Gln(3R-OH) = NC(=O)C[C@@H](O)[C@H](N)C(=O)O; Hyp = O=C(O)[C@@H]1C[C@@H](O)CN1
assay.metric: MIC (µg/mL)
The reply should be a number in µg/mL, with the unit left off.

CC[C@H](C)C[C@H](C)CCCCCCCCC(=O)N[C@H]1C[C@@H](O)[C@@H](NCCN)NC(=O)[C@@H]2[C@@H](O)CCN2C(=O)[C@H]([C@H](O)CCN)NC(=O)[C@H]([C@H](O)[C@@H](O)c2ccc(O)cc2)NC(=O)[C@@H]2C[C@@H](O)CN2C(=O)[C@H]([C@@H](C)O)NC1=O :: 0.06

## Task Need MIC of CCCCCOc1ccc(-c2cc(-c3ccc(C(=O)N[C@H]4C[C@@H](O)[C@@H](O)NC(=O)[C@@H]5[C@@H](O)[C@@H](C)CN5C(=O)[C@H]([C@H](O)CC(N)=O)NC(=O)[C@H]([C@H](O)[C@@H](O)c5ccc(O)c(OS(=O)(=O)O)c5)NC(=O)[C@@H]5C[C@@H](O)CN5C(=O)[C@H]([C@@H](C)O)NC4=O)cc3)no2)cc1 [MF, micafungin] (X1-[Orn(4R-OH,5R-OH)]T[Hyp][hTyr(3S-OH,4S-OH,3'-OSO3H)][Gln(3R-OH)][Pro(3S-OH,4S-Me)]; lactam 1-C) , thanks.
## Result 0.015

## Task Need MIC of CCCCCOc1ccc(-c2ccc(-c3ccc(C(=O)N[C@H]4C[C@@H](O)[C@@H](O)NC(=O)[C@@H]5[C@@H](O)[C@@H](C)CN5C(=O)[C@H]([C@@H](C)O)NC(=O)[C@H]([C@H](O)[C@@H](O)c5ccc(O)cc5)NC(=O)[C@@H]5C[C@@H](O)CN5C(=O)[C@H]([C@@H](C)O)NC4=O)cc3)cc2)cc1 [AND, anidulafungin] ({pTerphenylCO(4''-OnC5H11)}-[Orn(4R-OH,5R-OH)]T[Hyp][hTyr(3S-OH,4S-OH)]T[Pro(3S-OH,4S-Me)]; lactam 1-C) , thanks.
## Result 0.06

## Task Need MIC of "Nc1[nH]c(=O)ncc1F" , thanks.
## Result 0.06

## Task Need MIC of "C[C@@H]1[C@H](O)[C@@H](C)/C=C/C=C/C=C/C=C/C=C/C=C/C=C/[C@H](O[C@@H]2O[C@H](C)[C@@H](O)[C@H](N)[C@@H]2O)C[C@@H]2O[C@](O)(C[C@@H](O)C[C@@H](O)[C@H](O)CC[C@@H](O)C[C@@H](O)CC(=O)O[C@H]1C)C[C@H](O)[C@H]2C(=O)O" , thanks.
## Result 1

## Task Need MIC of CC(=O)N1CCN(c2ccc(OCC3COC(Cn4ccnc4)(c4ccc(Cl)cc4Cl)O3)cc2)CC1 (stereo not shown) , thanks.
## Result 4

Value source: paper PMC7924852
